Quick reference for chromatographic logD among some compounds
# PROTOCOL_DETAILS: lipophilicity log D at pH 7.4
# Type: physicochemical
# EXPERIMENTAL_CONDITIONS: octanol/water
Answer using only a numeral; do not append any unit.

For orientation, consider the following solved cases.
Cc1cc(=O)c2ccc(CN3CCN(c4ccc(F)cc4)CC3)cc2[nH]1 ... 2.44
COC(=O)c1c[nH]c2cc(CN3CCN(Cc4ccc(OC)cc4)CC3)c(C)cc2c1=O ... 2.03
COC(=O)c1c[nH]c2cc(CN3CCN(c4ccc(C(F)(F)F)cc4)CC3)c(C)cc2c1=O ... 3.73

Incoming: Output chromatographic logD of COC(=O)c1c[nH]c2cc(CN3CCN(Cc4ccccc4)CC3)c(OC)cc2c1=O
Outgoing: 1.28

----------
# PROTOCOL_DETAILS: aqueous solubility (LC/MS- or HPLC-based assay)
# Type: physicochemical
# EXPERIMENTAL_CONDITIONS: aqueous solution (buffer not named), pH 6.5, aqueous buffer, pH 6.5; read-out: Solubility pH 6.5
EXPERIMENTAL_READOUT: solubility

For orientation, consider the following solved cases.
Cc1[nH]c2cc(CN3CCN(c4ccc(F)cc4)CC3)ccc2c(=O)c1Cl [Compound 8ao] ... 1 to 19.9 µM
COC(=O)c1c[nH]c2ccc(CN3CCN(c4ccc(C(F)(F)F)cc4)CC3)cc2c1=O [Compound 8ai] ... 1 to 19.9 µM
COC(=O)c1c[nH]c2ccc(CN3CCN(c4ccc(OC)cc4)CC3)cc2c1=O [Compound 8ag] ... 20 to 39.9 µM
Cc1cc(=O)c2ccc(CN3CCN(c4ccc(F)cc4)CC3)cc2[nH]1 [Compound 8am] ... ≥ 80 µM
COC(=O)c1c[nH]c2ccc(CN3CCN(c4ccccc4)CC3)cc2c1=O [Compound 8af] ... 20 to 39.9 µM

Incoming: Output solubility of COC(=O)c1c[nH]c2ccc(CN3CCN(c4ccc(F)cc4)CC3)cc2c1=O [Compound 8ah]
Outgoing: ≥ 80 µM

Incoming: Output solubility of O=c1c(Cl)c[nH]c2cc(CN3CCN(c4ccc(F)cc4)CC3)ccc12 [Compound 8al]
Outgoing: 40 to 59.9 µM

Incoming: Output solubility of O=c1c(Br)c[nH]c2cc(CN3CCN(c4ccc(F)cc4)CC3)ccc12 [Compound 8ak]
Outgoing: 20 to 39.9 µM

Incoming: Output solubility of Cc1[nH]c2cc(CN3CCN(c4ccc(F)cc4)CC3)ccc2c(=O)c1Br [Compound 8an]
Outgoing: 1 to 19.9 µM

----------
# System: malarial strain TM90-C2B (mefloquine, chloroquine, atovaquone, and pyrimethamine-resistant)
# PROTOCOL_DETAILS: microbe, parasite or virus in culture
# Type: cell-based, P. falciparum
# EXPERIMENTAL_CONDITIONS: Plasmodium falciparum, TM90, read-out: EC50 TM90-C2B
EXPERIMENTAL_READOUT: EC50 (µM)
Give just the number in µM; leave the unit off.

Incoming: Output EC50 of O=C1C(O)=C([C@H]2CC[C@H](c3ccc(Cl)cc3)CC2)C(=O)c2ccccc21 [Atovaquone, atovaquone, reference compound]
Outgoing: 18.4

----------
# System: P. berghei sporozoites expressing luciferase
# PROTOCOL_DETAILS: in vitro liver stage activity, luciferase sporozoites infecting HEPG2 hepatoma cells
# Assay type: cell-based
# EXPERIMENTAL_CONDITIONS: Plasmodium berghei, HEPG2 cells
pEC50: −log10 of the molar value.
# label = bin(measured pEC50), where bins are low range: < 8; mid range: ≥ 8 and < 9; high range: ≥ 9

Use these answered entries as a reference point.
COC(=O)c1c[nH]c2cc(CN3CCN(c4ccc(OC)cc4)CC3)ccc2c1=O ... high range
Cc1[nH]c2cc(CN3CCN(c4ccc(F)cc4)CC3)ccc2c(=O)c1Br ... low range

Incoming: Class? Entry: CCCCc1cc2c(=O)c(C(=O)O)c[nH]c2cc1OCCOc1ccccc1
Outgoing: high range

Incoming: Class? Entry: COC(=O)c1c[nH]c2cc(N3CCN(Cc4ccccc4)CC3)c(C)cc2c1=O
Outgoing: low range

Incoming: Class? Entry: COC(=O)c1c[nH]c2cc(CN3CCN(c4ccc(F)cc4)CC3)c(OC)cc2c1=O
Outgoing: low range
